Tested on: SK-MEL-28 melanoma
assay notes: NCI tumour cell line growth inhibition, 48 h
Could you please report measured TGI for the items listed next?

Exercise: May I ask what TGI has been recorded for COc1ccc2c(c1)C(=O)c1c-2n(CCCn2ccnc2)c(=O)c2cc([N+](=O)[O-])ccc12 ?
Key: > 100 µM

Exercise: May I ask what TGI has been recorded for CC(C)(C)OC(=O)CN1C(=O)CC1CC(=O)c1ccccc1 (centres undefined) ?
Key: 36.7 µM

Exercise: May I ask what TGI has been recorded for COc1ccc(/C=C2\CCC(C)C3C2=NN(c2ccccc2)C3c2ccc(OC)c(OC)c2)cc1OC (centres undefined) ?
Key: 31.6 µM

Exercise: May I ask what TGI has been recorded for CCN(CCO)C(=O)C1(c2ccccc2)CCCCC1 ?
Key: > 10 µM

Exercise: May I ask what TGI has been recorded for Cc1ccc(/C(Cl)=C/C=C(C#N)C#N)cc1 ?
Key: 5.12 µM

Exercise: May I ask what TGI has been recorded for O=C(O)CCCn1nnc2c(=O)[nH][nH]c(=O)c21 ?
Key: > 100 µM

Exercise: May I ask what TGI has been recorded for Nc1nc(N(Cc2ccccc2)c2ccccc2)c2cn[nH]c2n1 ?
Key: > 100 µM

Exercise: May I ask what TGI has been recorded for CN(C)c1ccc(/C=C2/NC(=S)NC2=O)cc1 ?
Key: > 100 µM

Exercise: May I ask what TGI has been recorded for COc1ccc(N2C(=O)/C(=C/c3ccc(N(CCC#N)CCC#N)cc3C)N=C2c2cc([N+](=O)[O-])ccc2Cl)cc1 ?
Key: > 63.1 µM

Exercise: May I ask what TGI has been recorded for Nc1nc(I)nc2c1ncn2C1OC(COS(N)(=O)=O)C(O)C1O (centres undefined) ?
Key: 0.0148 µM

Exercise: May I ask what TGI has been recorded for COC(=O)CC(c1cn(S(=O)(=O)c2ccc(C)cc2)c2ccccc12)C1C[C@@H](C(=O)OC)N(C(=O)OC(C)(C)C)C1=O (some centres undefined) ?
Key: > 100 µM

Exercise: May I ask what TGI has been recorded for O=C1N=C(SC2OC(CO)C(O)C(O)C2O)S/C1=C\c1ccccc1 (centres undefined) ?
Key: > 100 µM

Exercise: May I ask what TGI has been recorded for CCN(CC)CCCC(C)Nc1c2ccc(Cl)cc2nc2ccc(O)cc12 (centres undefined) ?
Key: 2.98 µM

Exercise: May I ask what TGI has been recorded for COc1ccc2c(c1)-c1nc(=S)n(CCCN(C)C)c3ccc([N+](=O)[O-])c(c13)N2 ?
Key: 2.81 µM

Exercise: May I ask what TGI has been recorded for O=S(=O)(SC1=NCCN1)c1ccc2ccccc2c1 ?
Key: > 100 µM

Exercise: May I ask what TGI has been recorded for CC(=O)N(C(C)=O)n1c(Cc2ccc(Cl)cc2)n[nH]c1=O ?
Key: > 100 µM

Exercise: May I ask what TGI has been recorded for COc1ccc(NC(=O)CC(=O)N/N=C/c2ccc(N(CCC#N)S(C)(=O)=O)cc2)cc1 ?
Key: > 100 µM

Exercise: May I ask what TGI has been recorded for O=C(NC12CC3CC(CC(F)(C3)C1)C2)c1ccccc1 ?
Key: > 100 µM

Exercise: May I ask what TGI has been recorded for C/C(Cl)=N/OC(=O)Nc1ccc(S(N)(=O)=O)c(C)c1 ?
Key: 30.6 µM
